Target: T1, Cynomolgus CD3εδ Fc heterodimer (Cy CD3ε Fc / CD3δ Fc-HIS) (cynomolgus, UniProt Q95LI8 22-100)
T1 chain 1: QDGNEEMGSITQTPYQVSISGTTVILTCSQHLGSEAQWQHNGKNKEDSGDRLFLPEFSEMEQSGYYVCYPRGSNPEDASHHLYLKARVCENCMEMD
T1 chain 2: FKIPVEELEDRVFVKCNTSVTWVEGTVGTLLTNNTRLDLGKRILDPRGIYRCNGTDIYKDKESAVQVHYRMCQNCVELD
Test: BLI (Octet), IgG on AHC sensor, pH 6.0
measuredAttribute: koff (s⁻¹)
One number for each entry, in s⁻¹.

SAD10319_P06_C10 (ADI-57423) (antibody, V domains shown, IgG; also called Ab152) VH: QVQLVQSGAEVKKPGASVKVSCKASGYTFTEYVMHWVRQAPGPRLEWMGDIDAGTGATKYSQKFQGRVTITRDTSASTAYMELSSLRSEDTAVYYCARDAYHHYFYDVWGQGTLVTVSS VL: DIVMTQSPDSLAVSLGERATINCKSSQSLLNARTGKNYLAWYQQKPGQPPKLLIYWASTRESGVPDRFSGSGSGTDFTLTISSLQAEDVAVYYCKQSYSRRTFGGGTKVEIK : 0.00318
SAD10320_P04_E11 (ADI-57388) (antibody, V domains shown, IgG; also called Ab111) VH: QVQLVQSGAEVKKPGASVKVSCKASGFNIKDYYMHWVRQAPGQRLEWMGWIDLENANTIYDAKFQGRVTITRDTSASTAYMELSSLRSEDTAVYYCARDAYGHDFYDVWGQGTLVTVSS VL: DIVMTQSPDSLAVSLGERATINCKSSQSLLNARTGKNYLAWYQQKPGQPPKLLIYWASTRESGVPDRFSGSGSGTDFTLTISSLQAEDVAVYYCKQSYGHRTFGGGTKVEIK : 0.00297
SAD10319_P01_B03 (ADI-57305) (antibody, V domains shown, IgG; also called Ab243) VH: QVQLVQSGAEVKKPGASVKVSCKASGYTFNAYAMHWVRQAPGQRLEWMGWINPDTGATTYSQKFQGRVTITRDTSASTAYMELSSLRSEDTAVYYCARDAYHHYFYDVWGQGTLVTVSS VL: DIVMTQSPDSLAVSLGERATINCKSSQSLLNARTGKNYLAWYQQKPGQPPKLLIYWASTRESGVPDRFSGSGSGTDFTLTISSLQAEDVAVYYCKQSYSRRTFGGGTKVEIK : 0.0245
SAD10319_P06_B10 (ADI-57421) (antibody, V domains shown, IgG; also called Ab150) VH: QVQLVQSGAEVKKPGASVKVSCKASGYTFTEYVMHWVRQAPGQRLEWMGDIDAGTGATKYSQKFQGRVTITRDTSASTAYMELSSLRSEDTAVYYCARDAYHHYFYDVWGQGTLVTVSS VL: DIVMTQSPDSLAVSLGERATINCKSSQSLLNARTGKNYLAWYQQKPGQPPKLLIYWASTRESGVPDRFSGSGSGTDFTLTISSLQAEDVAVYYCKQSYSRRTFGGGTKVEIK : 0.002

As a next step, examine the binder that follows.
So, SAD10318_P04_G11 (ADI-57294) (antibody, V domains shown, IgG; also called Ab222) VH: QVQLVQSGAEVKKPGASVKVSCKASGFNIKDYYMHWVRQAPGQRLEWMGWIDLENANTIYDAKFQGRVTITRDASASTAYMELSSLRSEDTAVYYCARDAYHRYHYDVWGQGTLVTVSS VL: DIVMTQSPDSLAVSLGERATINCKSSQSLLNAHTGKNHLAWYQQKPGQPPKLLIYWASTRESGVPDRFSGSGSGTDFTLTISSLQAEDVAVYYCKQSHSRRTFGGGTKVEIK ? Its koff was 0.00215

FYI, the data here is from patent US20220380463A1.
